Measured TGI, listed per entry.
test system: OVCAR-3 ovarian; test: NCI tumour cell line growth inhibition, 48 h

Worked examples follow.
CN(NC(=O)CC(=O)NN(C)C(=S)c1ccccc1)C(=S)c1ccccc1: > 100 µM
CC(C)=CCC/C(=C\CC/C(=C\CCc1ccoc1)C(=O)O)C(=O)O: > 100 µM
COc1ccc(C2c3cc4c(cc3OC(NNC(N)=O)C2C)OCO4)cc1 (stereo not given): 14.3 µM
COc1ccccc1C1=C2C(=O)N(C)C(c3ccccc3OC)=C2C(=O)N1C: > 100 µM

Now let's try a different one.
Record `O=C(Nc1ccc(-n2cc(-c3ccncc3)c(-c3ccc(O)c(Cl)c3)n2)cc1)c1cc(Cl)cc(Cl)c1` : what is its TGI with OVCAR-3 ovarian?
> 32.5 µM

---

tested on: KM12 colon; experiment: NCI tumour cell line growth inhibition, 48 h
readout_name: TGI

COc1ccc(C2S/C(=C\c3cc(OC)c(OC)c(OC)c3)C(=O)N2NC(=O)Cc2ccccc2)cc1 (stereo not drawn): > 100 µM
c1nncn1C12C3C4C5C3C1C5C42 (stereo not drawn): > 100 µM
C[C@@H]1O[C@@H](O[C@@H]2[C@@H](O)[C@H](OCCc3ccc(O)c(O)c3)O[C@H](COC(=O)/C=C/c3ccc(O)c(O)c3)[C@H]2O)[C@H](O)[C@H](O)[C@H]1O: > 100 µM
O=[N+]([O-])c1ccc(Sc2c3ccccc3nc3ccccc23)cc1: > 100 µM
CC1(C)NCCC[C@]2(C)[C@H]3C=CC4=C5C[C@](C)(CO)CC[C@]5(C)CC[C@@]4(C)[C@]3(C)CC[C@@H]12: 20.3 µM

Give its TGI value. Item: `C=C1C[C@@H]2C/C=C/C(=O)C/C(C)=C\C=C\C(=O)O[C@H](C=O)C/C(C)=C/[C@H](C1)O2`
12.2 µM

Same thing, different molecule: COc1ccc2c(c1)C1Oc3ccccc3CC1(O)CO2 (stereo not drawn)
> 100 µM

Same thing, different molecule: `COc1cc(NC(=O)c2cc(OC)c3ccn(C)c3c2)cc2c1C[C@]1(C)CC[C@@H](O)C(C)(C)[C@H]1O2`
> 100 µM

---

test system: OVCAR-3 ovarian; assay: NCI tumour cell line growth inhibition, 48 h
readout_name: TGI

Worked examples follow.
O=S(=O)(O)c1ccc2c(N=Nc3ccccc3)c(O)c(S(=O)(=O)O)cc2c1: > 100 µM
CCSCC(=O)N1CCc2c([nH]c3ccccc23)C1=O: > 100 µM
CN1[C@@H]2CCCC[C@H]2N(C)P1(=O)C(O)/C=C/c1ccccc1 (some centres not stated): > 100 µM
CC(=O)NC1=C(Nc2ccc(C)cc2)C(=O)c2ccccc2C1=O: 45.7 µM
Cc1nc2c(=O)[nH]c(=O)n(C)c2[nH]c1=O: > 100 µM

Record `COc1ccc2c([nH]c3cc(O)c(C)cc32)c1C=O` : what is its TGI with OVCAR-3 ovarian?
> 25 µM

Same thing, different compound: CC1(C)CC(=O)C2=C(C1)NC(SCC(=O)O)=C(C#N)C2c1ccc(Br)cc1 (configuration not stated)
> 100 µM

---

test system: NCI-H23 lung; assay: NCI tumour cell line growth inhibition, 48 h
readout_name: TGI

Record N#CC1=C(N)N=C(N2CCCCC2)C(C#N)C12Nc1ccccc1S2 (stereo unspecified) : what is its TGI with NCI-H23 lung?
52.8 µM

Same thing, different compound: CCC(C)NC(=S)N/N=C(\C)c1ccccn1 (stereo unspecified)
> 100 µM

Same thing, different compound: `Cc1ncc([N+](=O)[O-])n1CCNS(=O)(=O)CCCn1ccnc1[N+](=O)[O-]`
> 100 µM

Same thing, different compound: `C=C1C[C@@H]2C/C=C/C(=O)C/C(C)=C\C=C\C(=O)O[C@H](C=O)C/C(C)=C/[C@H](C1)O2`
23.1 µM

Same thing, different compound: `CN(C)NC1=NS(=O)(=O)c2cc3c(cc2S1)N(N(C)C)C(=O)c1cc2c(cc1N(N(C)C)C3=O)SC(NN(C)C)=NS2(=O)=O`
> 10 µM

Same thing, different compound: `c1nc2cscc2c2cscc12`
> 100 µM

Same thing, different compound: `Clc1ccc(-n2nnc(C3=NCCCN3)c2-c2ccccc2)cc1`
> 100 µM

Same thing, different compound: NC(CCl)=NC1CN2CCC1CC2 (stereo unspecified)
> 100 µM

Same thing, different compound: `O=C1c2n[nH]nc2C(=O)c2n[nH]nc21`
> 100 µM

Same thing, different compound: `O=C1C(Cl)=C(Oc2ccc([N+](=O)[O-])cc2)C(=O)c2c(O)ccc(O)c21`
> 100 µM

Same thing, different compound: O=C(O)CCC(C(=O)O)N1C(=O)c2ccccc2C1=O (stereo unspecified)
> 100 µM

Same thing, different compound: COc1ccc2c(c1)C1Oc3ccccc3CC1(O)CO2 (stereo unspecified)
> 100 µM

Same thing, different compound: CCCN=C1Nc2ccccc2[C@@H]2N(C)c3ccccc3C(C)C[C@]12C (stereo partly specified)
37.3 µM

Same thing, different compound: `O=c1c(/C=C/c2c(O)ccc3ccccc23)nnc2sc(-c3cccc([N+](=O)[O-])c3)nn12`
> 100 µM

Same thing, different compound: `FC(F)(F)c1cccc(COCCN2CCN(Cc3cccc(C(F)(F)F)c3)CC2)c1`
41.1 µM

Same thing, different compound: `CC(=O)OCSc1ncnc2c1ncn2CN1CCOCC1`
53.2 µM

---

tested on: K-562 leukemia; assay: NCI tumour cell line growth inhibition, 48 h
readout_name: TGI

O=S(=O)(O)c1ccc2c(N=Nc3ccccc3)c(O)c(S(=O)(=O)O)cc2c1: > 100 µM

Give its TGI value. Item: `COc1ccccc1C1=C2C(=O)N(C)C(c3ccccc3OC)=C2C(=O)N1C`
> 100 µM

Same thing, different compound: COC1/C=C\C=C(/C)C(=O)Nc2cc3nc4ccc(Br)cc4oc-3c(c2=O)CC(C)CC(OC)C(O)C(C)/C=C(\C)C1OC(N)=O (centres undefined)
7.03 µM

Same thing, different compound: `CCCc1ccc(S(=O)(=O)N[C@H]2CC[C@H]3[C@@H]4CCc5cc(O)ccc5[C@H]4CC[C@]23C)cc1`
12 µM

Same thing, different compound: `COC(=O)c1ccc(CCC2=CC(=O)C(Br)=CC2=O)cc1`
4.84 µM

Same thing, different compound: `CCOc1cc2c(cnc3c4cc(OC)c(OC)cc4ccc23)cc1OC`
> 100 µM

Same thing, different compound: `C=CC[C@H]1C[C@@]2(C)OC[C@H](C(C)C)N2C1=O`
> 100 µM

Same thing, different compound: `O=C(Nc1ccccc1)c1cc(S(=O)(=O)Nc2n[nH]c(=O)[nH]2)c(SSc2cc(Cl)c(C(=O)Nc3ccccc3)cc2S(=O)(=O)Nc2n[nH]c(=O)[nH]2)cc1Cl`
> 100 µM

Same thing, different compound: `O=C(Nc1ccc(Cl)cc1)c1cccc([N+](=O)[O-])c1O`
24.2 µM

Same thing, different compound: `N#CN=C1c2ccccc2C(=NC#N)c2cc(CO)ccc21`
80.7 µM

Same thing, different compound: `COC(=O)COc1ccc(/C=C2\N=C(c3ccccc3)N(c3cc(C(F)(F)F)ccc3Cl)C2=O)cc1`
> 100 µM

Same thing, different compound: CCN1C(=O)N(CC)C2C1NN=c1s/c(=C3\C(=O)N(CC(C)C)c4ccccc43)c(=O)n12 (centres undefined)
> 100 µM

Same thing, different compound: O=C1CSC(c2cccc(Cl)c2)N1c1c(O)c(Cl)cc(Br)c1Cl (centres undefined)
> 100 µM

Same thing, different compound: `COc1ccc(C[C@H]2NC(=O)/C=C/C[C@@H]([C@H](C)[C@H]3O[C@@H]3c3ccccc3)OC(=O)[C@H](CC(C)C)OC(=O)[C@H](C)CNC2=O)cc1`
> 8.13e-05 µM

Same thing, different compound: O=C(O)CCC(C(=O)O)N1C(=O)c2ccccc2C1=O (centres undefined)
> 100 µM

Same thing, different compound: `Cc1cc(C)c(O)c(CNCCCCCCNCc2cc(C)cc(C)c2O)c1`
3.55 µM

Same thing, different compound: `Cc1nc2c(=O)[nH]c(=O)n(C)c2[nH]c1=O`
> 100 µM

Same thing, different compound: `O=C(Nc1ccc(-n2cc(-c3ccncc3)c(-c3ccc(O)c(Cl)c3)n2)cc1)c1cc(Cl)cc(Cl)c1`
> 32.5 µM

Same thing, different compound: `CCN(CC)c1ccc(/C=c2\nc(-c3ccccc3)n3c2nc2ccccc23)cc1`
> 100 µM

---

tested on: SNB-75 CNS; assay: NCI tumour cell line growth inhibition, 48 h; in the data active = GI50 below about 0.43 µM; inactive = the rest
Please state which outcome applies, choosing from active, inactive

Short answer needed: outcome of this test for `CCN(CC)CCOc1ccc(Nc2ncc3cc(-c4ccc(O)cc4)c(=O)n(C)c3n2)cc1` ?
active

Same thing, different compound: `Nc1ccc(C(=O)c2ccc(N)c(Br)c2)cc1Br`
active

Same thing, different compound: C/C=C(\C)C(=O)N[C@H]1[C@@H](OC(C)=O)C[C@]2(C)C3CC[C@@]4(C)C(CC[C@@H]4C(C)N(C)C)C3CCC2[C@H]1O (stereo not given in full)
inactive

Same thing, different compound: O=C(c1cc(F)c(Cl)cc1Cl)N1N=C(c2ccccc2)CC1(O)c1ccccc1 (stereo not given)
inactive

Same thing, different compound: `CCCc1ccc(S(=O)(=O)N[C@H]2CC[C@H]3[C@@H]4CCc5cc(O)ccc5[C@H]4CC[C@]23C)cc1`
inactive
